The measurements presented in this section are drawn from PubChem BioAssay (Tox21).

# Target under test: Estrogen receptor (Homo sapiens)
# Method summary: qHTS assay to identify small molecule agonists of the estrogen receptor alpha (ER-alpha) signaling pathway using the BG1 cell line (AID 743079); also: nearly all actives have a fitted effect of over 20% in size
# Measurement conditions: BG1Luc4E2 cells, ERE-luciferase agonist, 22 h; series mostly up to 70.3 µM
Results filed as inconclusive are left out. Active and inactive are the calls of the source. Calls follow the shape of the dose curve; as a rule, active = well fitted activation curve with a large enough effect in the repeat runs; inconclusive = weak or mixed curves, or effect the other way; inactive = no such curve, though single readings can be large or run the other way.
// one of active, inactive, no free text

Inquiry: Query: recorded result category for C#C[C@]1(OC(=O)CCCCCC)CC[C@H]2[C@@H]3CCC4=CC(=O)CC[C@@H]4[C@H]3CC[C@@]21C in this test
Reply text: active

Inquiry: For this molecule, state the assay outcome: CCC(=O)O[C@H]1[C@@H](N2CCCCC2)C[C@H]2[C@@H]3CC[C@H]4C[C@H](OC(C)=O)[C@@H](N5CCCCC5)C[C@]4(C)[C@H]3CC[C@@]21C
Reply text: inactive

Inquiry: Look up the recorded call for CNC(C)[C@@H]1CC[C@@H](N)[C@@H](O[C@H]2[C@H](O)[C@@H](O[C@H]3OC[C@](C)(O)[C@H](NC)[C@H]3O)[C@H](N)C[C@@H]2N)O1 (stereo partly specified) in this test.
Reply text: inactive

Inquiry: Hello, I am checking results. What call was entered for C[C@]12CC[C@H]3[C@@H](CCC4=CC(=O)CC[C@@]43C)[C@@H]1CC[C@@H]2OC(=O)CCc1ccccc1 ?
Reply text: active

Inquiry: Fill in: this test's call for COc1cc(C[C@H](C)N)c(OC)cc1Br is ___
Reply text: inactive

Inquiry: How was Cc1ccc2c(c1)[C@]13CCCC[C@@H]1[C@H](C2)N(C)CC3 classified in this test?
Reply text: inactive

###

# Target under test: Acetylcholinesterase (Homo sapiens)
# Method summary: Acetylcholinesterase (AChE) small molecule antagonists: fluorescence cell-based qHTS assay (AID 1347398); also: nearly all actives have a fitted effect of over 50% in size; also: potency is read from the fitted curve at half-maximal effect
# Measurement conditions: SH-SY5Y cells; AChE activity; series mostly up to 115 µM
Results filed as inconclusive are left out. Calls of active or inactive are those of the source. Calls follow the shape of the full dose curve.
Readout type: Potency

The examples below pair each entry with its known result.
{"Compound": "CC(C)c1ccc2oc3nc(N)c(C(=O)O)cc3c(=O)c2c1", "Readout type": "Potency", "Meas value": "inactive"}
{"Compound": "O=C(CCCCCCC(=O)Nc1ccccc1)NO", "Readout type": "Potency", "Meas value": "inactive"}
{"Compound": "CC(C)COC(=O)c1ccc(O)cc1", "Readout type": "Potency", "Meas value": "inactive"}
{"Compound": "Cc1oc2c(NC(=O)c3c(Cl)cccc3Cl)cccc2c1C(C)(C)O", "Readout type": "Potency", "Meas value": "inactive"}
{"Compound": "COc1cc(C(=O)NC2CCN(C)CC2)ccc1Nc1ncc2c(n1)N(C1CCCC1)CC(F)(F)C(=O)N2C", "Readout type": "Potency", "Meas value": "11.6 µM (active)"}
{"Compound": "CCN(CC)c1cccc(C)c1", "Readout type": "Potency", "Meas value": "inactive"}
{"Compound": "O=c1[nH]ncc2ccccc12", "Readout type": "Potency", "Meas value": "inactive"}
{"Compound": "Nc1ccc2c(S(=O)(=O)O)cccc2c1S(=O)(=O)O", "Readout type": "Potency", "Meas value": "inactive"}

Inquiry: Look up and report measured Potency for this entry: CC1(C)OC(=O)Nc2ccc(Br)cc21
Reply text: inactive

Inquiry: State its Potency for this compound: Oc1ccc2c(c1)Cc1ccccc1-2
Reply text: inactive

Inquiry: Please give the documented Potency of COC(=O)C1=C(C)NC(C)=C(C(=O)OCCN2CCN(C(c3ccccc3)c3ccccc3)CC2)C1c1cccc([N+](=O)[O-])c1 (configuration not stated)
Reply text: inactive

Inquiry: Provide Potency value for the following compound: CCCCOc1ccc(N)cc1
Reply text: inactive
